System: UACC-257 melanoma
Assay: NCI tumour cell line growth inhibition, 48 h
Metric: TGI

> print(dat)
                                    compound      system.tested  metric  observed
 1  COc1ccc(/C=C2\CC(C)CC3C2=NN(C(C)=O)C3c2ccc(OC)cc2)cc1 (configuration not stated)  UACC-257 melanoma     TGI     45 µM
 2  CC1=C(C(=O)Nc2cc(=O)n(C)c(=O)n2C)C(c2ccc([N+](=O)[O-])cc2)C(C(=O)Nc2cc(=O)n(C)c(=O)n2C)=C(C)N1  UACC-257 melanoma     TGI  > 100 µM
 3           C/C(=N\Nc1nc2ccccc2n1C)c1cnccn1  UACC-257 melanoma     TGI   > 25 µM
 4                    O=C(O)c1cc2ccccc2oc1=O  UACC-257 melanoma     TGI  > 100 µM
 5  CN(CC#N)C1CCCC[C@H]1O (some centres not stated)  UACC-257 melanoma     TGI  > 100 µM
 6  COc1ccc(C2Oc3cc(OC)c(O)c(C)c3[C@H]2C)cc1 (some centres not stated)  UACC-257 melanoma     TGI  > 100 µM
 7          CN(CCc1ccccn1)c1nc(=[N+](C)C)ss1  UACC-257 melanoma     TGI  > 100 µM
 8  O=C(O)/C(Cl)=C(\Cl)C(=O)NC1C2CC3CC(C2)CC1C3 (configuration not stated)  UACC-257 melanoma     TGI  > 100 µM
 9                  Cc1ccc2c(n1)C(=O)C=CC2=O  UACC-257 melanoma     TGI   14.6 µM
10               COP(=O)(Cc1ccccc1)Cc1ccccc1  UACC-257 melanoma     TGI  > 100 µM
11    N#CC(C#N)=C(N)/C(C#N)=C/c1ccc2ccccc2n1  UACC-257 melanoma     TGI  > 100 µM
12  Cc1cc(Nc2c3ccccc3nc3ccccc23)ccc1NS(C)(=O)=O  UACC-257 melanoma     TGI   9.58 µM
13  NCCN.NCCN.O=C[O-].O=C[O-].[Co+3].[O-][Cl+3]([O-])([O-])[O-]  UACC-257 melanoma     TGI  > 100 µM
14  CCOC(=O)Cc1csc2[n+]1C(=O)/C(=C\c1cccc(Cl)c1Cl)S2  UACC-257 melanoma     TGI   90.1 µM
15   OC[C@]1(n2nc3ccccc3n2)OC[C@@H]1c1ccccc1  UACC-257 melanoma     TGI  > 100 µM
16        O=C(CCCNc1nc(-c2ccccc2)cs1)c1cccs1  UACC-257 melanoma     TGI  > 100 µM
17  C=C1C(=O)C[C@@]23CCC[C@@]12CC(OCOC)C3 (some centres not stated)  UACC-257 melanoma     TGI   7.82 µM
18   CCCCSC1=N/C(=C\c2ccc(N(C)C)cc2)C(NN)=N1  UACC-257 melanoma     TGI  > 100 µM
19  O=C(O)CCC/C=C\C[C@H]1C=CC(=O)/C1=C/C[C@@H](O)CCc1cccc(C(F)(F)F)c1  UACC-257 melanoma     TGI   7.38 µM
20      CCN(CC)CCCNc1ncc(C)c2[nH]c3ccncc3c12  UACC-257 melanoma     TGI   18.5 µM
21  CCOC(=O)C(C(=O)c1ccccc1C(=O)OC)=P(c1ccccc1)(c1ccccc1)c1ccccc1  UACC-257 melanoma     TGI   > 10 µM
22        CCN(CC)C(=S)SS(=O)(=O)c1ccc(Cl)cc1  UACC-257 melanoma     TGI   58.8 µM

----------
Test system: HCC-2998 colon
Assay: NCI tumour cell line growth inhibition, 48 h
Metric: TGI (µM)

> print(dat)
                                   compound  metric  result.modifier  observed
1  CCOc1ccc(NC(=O)/C(=N\NC(C)(C)C)C2C(=O)Nc3ccccc3S2=O)cc1 (stereo not given)     TGI                >       100
2  CN(C)c1ncc(-c2ccc(C(F)(F)F)cc2)c(NC2CCCCCC2)n1     TGI                =      28.8
3  CCCC(=O)O[C@H]1C=C2C[C@@]34SS[C@]5(CC6=C[C@H](OC(C)=O)[C@@H]7O[C@@H]7[C@H]6N5C3=O)C(=O)N4[C@@H]2[C@H]2O[C@H]21     TGI                =    0.0194
4  CN(C)C/C=C/C(=O)Nc1cc2c(Nc3ccc(F)c(Cl)c3F)ncnc2cc1OCCOC(F)F     TGI                =      2.68
5  CC1=CCC2C3(C)CCC2(C(C)C)C1C3 (stereo not given) (tested in a mixture with another compound)     TGI                =      49.5

----------
Test system: IGROV1 ovarian
Assay: NCI tumour cell line growth inhibition, 48 h
Metric: TGI

> print(dat)
                                    compound  observed
 1  O=C(c1ccccc1)c1oc2ccc(Br)cc2c1-c1cnn(-c2ccccc2)c1  > 100 µM
 2  CN(/N=C/c1cccc2cccnc12)c1ccc([N+](=O)[O-])cc1  > 100 µM
 3  COc1cc(C(=O)O[C@@H]2[C@@H](OC(=O)c3cc(OC)c(OC)c(OC)c3)[C@@H](OC)O[C@@H]3CO[C@@H](c4ccccc4)O[C@@H]23)cc(OC)c1OC  > 100 µM
 4  CC(C)C1CC2C(=O)N(c3ccccc3)C(=O)C2c2[nH]c3ccccc3c21 (stereo not drawn)  > 100 µM
 5  O=C(NNC(c1ccccc1)C(F)(F)F)c1ccncc1 (stereo not drawn)  > 100 µM
 6  COC(=O)c1c(O)c([N+](=O)[O-])cc2c1c1c(n2Cc2ccccc2)C(=O)c2ccccc2C1=O  > 100 µM
 7  NC(=O)c1coc(C2OC(CO)C(O)C2O)n1 (stereo not drawn)  > 100 µM
 8  COc1ccc(NC(=O)CC/C(CC(=O)C(C)(C)C)=N\NC(=O)C(N)=O)cc1  > 100 µM
 9  CC=CCOc1cc(NC(=S)OC(C)C)ccc1Cl (mixture of isomers)   43.2 µM
10   CCCCSC1=N/C(=C\c2ccc(N(C)C)cc2)C(NN)=N1  > 100 µM
11    CC(C)(C)NC(=O)NC12CC3CC(CC(F)(C3)C1)C2  > 100 µM
12  C=C(C)C1CC/C(C)=C/CC[C@]2(C)O[C@H]2CC/C(COC(C)=O)=C\[C@@H]1O (stereo partly drawn)   > 50 µM
13  COc1cc2c(cc1OC)C(OC)N(C)c1c-2ccc2cc3c(cc12)OCO3 (stereo not drawn)   3.02 µM

----------
Tested on: MDA-MB-231 breast
Assay: NCI tumour cell line growth inhibition, 48 h
Note to self: values exactly at 40 µM are YES. So TGI at or above 40 µM is YES, below is NO.

Molecule	Classification
O=C(O)CNc1ccc(C(=O)O)cc1	YES
CCOC(=O)c1sc(N/N=C2\NC(=O)/C(=C/c3ccc([N+](=O)[O-])cc3)S2)nc1C	YES
Cc1cc(Nc2c3ccccc3nc3ccccc23)ccc1NS(C)(=O)=O	NO
COc1cc(/C=C2/SC(c3ccccc3)N(c3ccccc3)C2=O)cc(OC)c1OC (stereo not given)	YES
CN1CCN(c2ccc(Nc3nc(N)c(C(=O)c4ccc5c(c4)OCCO5)s3)cc2)CC1	NO
Cc1cc(-c2nc3ccccc3s2)ccc1N	YES
O=c1c(O)cccc2cc(O)c(O)c(O)c12	YES
Cc1cc(S(=O)(=O)/N=C(\[N-]S(=O)(=O)c2ccc(Cl)cc2)[n+]2ccc(N(C)C)cc2)c(S)cc1Cl	YES
COc1cc(C=C2C(C)=NN(c3cccc(Cl)c3)C23C(Cl)C(=O)N3c2nc3ccccc3s2)ccc1O (stereo not given)	NO
COC1=CC23CCCN2CCc2cc4c(cc2C3C1O)OCO4 (stereo not given)	YES
CCN1C2=NCCN2S(=O)(=O)c2ccccc21	YES
Cc1ccc(C(=O)Nc2ccc(S(=O)(=O)O)c3cc(S(=O)(=O)O)cc(S(=O)(=O)O)c23)cc1NC(=S)Nc1cc(C(=O)Nc2ccc(S(=O)(=O)O)c3cc(S(=O)(=O)O)cc(S(=O)(=O)O)c23)ccc1C	YES
OC(COc1ccc(F)cc1)Cn1cnc2c(Cl)ncnc21 (stereo not given)	YES
C[C@@H]1Cc2c([nH]c3ccccc23)[C@@H](c2c(F)cc(NC3CN(CCCF)C3)cc2F)N1CC(F)(F)CO	NO
S=C(Nc1ccc(Cl)cc1)Nc1ccc(-c2nc3ccccc3o2)cc1	NO
O=C(Nc1cc2c(=O)oc3ccccc3c2oc1=O)c1cccnc1	YES
CCOC(=O)Cc1csc2[n+]1C(=O)/C(=C\c1cccc(Cl)c1Cl)S2	YES
CC1(C)CC(=O)C2=C(C1)NC1=C(C(=O)CC(C)(C)C1)C2c1ccc([N+](=O)[O-])cc1	YES
Cc1ccc([N+](=O)[O-])cc1S(=O)(=O)Nc1ccc(C2=NNC(c3ccccc3O)C2)cc1 (stereo not given)	YES
O=[N+]([O-])c1ccccc1NC1c2ccccc2Oc2ccccc21	YES
